These entries and their values trace back to patent EP0796843B1.

# Test system: Human T-cells
# assayRemarks: Inhibition of γ-interferon release in PHA-stimulated T-cells (ELISA)
# Type: cell-based
# testParameters: Homo sapiens, T-cell
observedProperty: pIC50
Would you please state pIC50, meaning minus log10 of the concentration in mol/L, as a bare number?

input: Param readout = pIC50; param system = Human T-cells; param query = C=C1/C(=C\C=C2/CCC[C@]3(C)[C@@H]([C@H](C)CCCC(C)(C)O)CC[C@@H]23)C[C@@H](O)C[C@@H]1O [1,25-Dihydroxy-cholecalciferol, reference compound] ; response: value
output: 9.10

---

# System: Human T-cell
# assayRemarks: Inhibition of T-cell proliferation (3H-thymidine, PHA-stimulated)
# Assay type: cell-based
# testParameters: human lymphocytes (70-80% T-cells) stimulated with PHA; 3H-thymidine after 3 and 4 days
Attribute: pIC50
Would you please state pIC50, meaning minus log10 of the concentration in mol/L, as a bare number?

| compound | studySystem | pIC50 |
| --- | --- | --- |
| C=C1/C(=C\C=C2/CCC[C@]3(C)C([C@H](C)C=C=CC(C)(C)O)=CC[C@@H]23)C[C@@H](O)C[C@@H]1O [1,25-Dihydroxy-16,22S,23-triene-cholecalciferol] | Human T-cell | 8.22 |

input: I have this compound here, C=C1/C(=C\C=C2/CCC[C@]3(C)C([C@H](C)C=C=CC(C)(C)O)=CC[C@@H]23)C[C@@H](O)C[C@@H]1O [1,25-Dihydroxy-16,22R,23-triene-cholecalciferol] , and I need its recorded pIC50.
output: 9.26
